TARGET ENTITY: Nischarin (Homo sapiens)
Sequence (Q9Y2I1 whole entry): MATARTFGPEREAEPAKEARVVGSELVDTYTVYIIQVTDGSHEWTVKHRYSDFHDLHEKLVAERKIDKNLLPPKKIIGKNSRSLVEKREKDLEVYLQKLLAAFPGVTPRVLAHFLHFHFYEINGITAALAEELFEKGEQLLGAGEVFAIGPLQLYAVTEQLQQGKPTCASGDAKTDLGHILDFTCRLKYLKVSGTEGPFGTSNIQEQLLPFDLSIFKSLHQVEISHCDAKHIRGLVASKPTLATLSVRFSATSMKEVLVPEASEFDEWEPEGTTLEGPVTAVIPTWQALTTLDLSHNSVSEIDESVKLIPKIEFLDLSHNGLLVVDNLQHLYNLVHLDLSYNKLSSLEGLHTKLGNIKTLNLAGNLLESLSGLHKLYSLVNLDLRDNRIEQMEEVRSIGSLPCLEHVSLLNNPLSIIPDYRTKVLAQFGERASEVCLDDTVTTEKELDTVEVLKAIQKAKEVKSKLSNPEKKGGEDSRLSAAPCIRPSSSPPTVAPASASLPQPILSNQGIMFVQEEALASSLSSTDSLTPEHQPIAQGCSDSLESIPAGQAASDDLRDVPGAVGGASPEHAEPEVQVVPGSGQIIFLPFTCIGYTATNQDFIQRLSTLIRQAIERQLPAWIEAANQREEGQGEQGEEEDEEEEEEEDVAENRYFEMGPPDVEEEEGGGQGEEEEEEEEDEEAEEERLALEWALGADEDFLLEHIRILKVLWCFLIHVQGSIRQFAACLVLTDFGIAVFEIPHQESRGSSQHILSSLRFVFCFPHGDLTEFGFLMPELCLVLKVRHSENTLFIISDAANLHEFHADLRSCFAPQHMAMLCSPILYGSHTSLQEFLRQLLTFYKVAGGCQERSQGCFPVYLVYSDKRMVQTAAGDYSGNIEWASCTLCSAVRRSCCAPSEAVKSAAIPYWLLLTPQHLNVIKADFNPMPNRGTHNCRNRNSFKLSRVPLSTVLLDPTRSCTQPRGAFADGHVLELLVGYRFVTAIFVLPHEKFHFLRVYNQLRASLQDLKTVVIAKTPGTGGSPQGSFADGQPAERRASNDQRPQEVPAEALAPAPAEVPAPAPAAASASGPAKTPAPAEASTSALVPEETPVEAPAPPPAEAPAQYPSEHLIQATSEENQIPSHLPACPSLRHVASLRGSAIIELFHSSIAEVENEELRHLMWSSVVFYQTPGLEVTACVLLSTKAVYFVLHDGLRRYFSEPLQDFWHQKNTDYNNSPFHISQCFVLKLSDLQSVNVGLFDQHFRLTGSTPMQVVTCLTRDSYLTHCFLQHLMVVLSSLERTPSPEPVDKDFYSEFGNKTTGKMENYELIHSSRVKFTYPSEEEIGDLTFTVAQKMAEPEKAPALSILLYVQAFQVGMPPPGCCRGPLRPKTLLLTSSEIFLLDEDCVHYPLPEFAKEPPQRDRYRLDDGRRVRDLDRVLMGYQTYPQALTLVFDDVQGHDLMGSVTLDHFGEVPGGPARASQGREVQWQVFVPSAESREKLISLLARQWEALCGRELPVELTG
TEST SUMMARY: Displacement of [125I]PIC from human imidazoline receptor 1 in human platelets analyzed under norepinephrine mask of alpha 2AR
MEASUREMENT CONDITIONS: read-out: Ki
PROPERTY: Ki (nM)
The reply should be a number in nM, with the unit left off.

[
  {
    "COMPOUND STRING": "c1ccc2c(CC3=NCCN3)cccc2c1",
    "Ki [nM]": 122
  },
  {
    "COMPOUND STRING": "Clc1cccc(Cl)c1N=C1NCCN1",
    "Ki [nM]": 55
  },
  {
    "COMPOUND STRING": "C1COC(NC(C2CC2)C2CC2)=N1",
    "Ki [nM]": 59.2
  },
  {
    "COMPOUND STRING": "Clc1cc(I)cc(Cl)c1N=C1NCCN1",
    "Ki [nM]": 4.8
  }
]

Request: Which measured Ki value corresponds to "Clc1ccc2nsnc2c1NC1=NCCN1" ?
Result: 28.3

Request: Please look up its Ki: "Cc1cc(C(C)(C)C)c(O)c(C)c1CC1=NCCN1"
Result: 6.2

Request: Quick check: Ki of "Cc1ccc(N(CC2=NCCN2)c2cccc(O)c2)cc1" ?
Result: 11.4

Request: Consider the compound shown here: "Clc1cccc2c1CN(NC1=NCCN1)C2" What is its recorded Ki?
Result: 232

Request: Query (compound): "N=C(N)N/N=C/c1c(Cl)cccc1Cl" ; field requested: Ki
Result: 34.7
